measurement-description: Solubility by gravimetric method in 14 solvents
Type: physicochemical
assay-context: IPAc, 50 °C, organic solvent or mixture, thermodynamic from solid
measured-property: solubility at 2 days (mg/mL)
// note: answer is a bare numeric in mg/mL

Exercise: What value of solubility at 2 days has been reported for the following compound? CCNn1c(C)c(C(=O)N[C@H](c2ccccc2)C2CC2)c2cccc(F)c2c1=O [SJB-01]
Solution: 37

###

measurement-description: Solubility in buffered solutions vs pH at 37 °C (HPLC)
Assay type: physicochemical
assay-context: Britton-Robinson 0.05M buffer, aqueous buffer, thermodynamic from solid; Britton-Robinson 0.05M, initial pH 4.95, 24 h pH 5.01, 37 °C; read-out: Solubility at 24 h
measured-property: solubility at 24 h (µg/mL)
// note: answer is a bare numeric in µg/mL

Exercise: What value of solubility at 24 h has been reported for the following molecule? CCNn1c(C)c(C(=O)N[C@H](c2ccccc2)C2CC2)c2cccc(F)c2c1=O
Solution: 7.7
